Target: T1, human GIP receptor (human) (UniProt P48546)
T1 sequence (looked up): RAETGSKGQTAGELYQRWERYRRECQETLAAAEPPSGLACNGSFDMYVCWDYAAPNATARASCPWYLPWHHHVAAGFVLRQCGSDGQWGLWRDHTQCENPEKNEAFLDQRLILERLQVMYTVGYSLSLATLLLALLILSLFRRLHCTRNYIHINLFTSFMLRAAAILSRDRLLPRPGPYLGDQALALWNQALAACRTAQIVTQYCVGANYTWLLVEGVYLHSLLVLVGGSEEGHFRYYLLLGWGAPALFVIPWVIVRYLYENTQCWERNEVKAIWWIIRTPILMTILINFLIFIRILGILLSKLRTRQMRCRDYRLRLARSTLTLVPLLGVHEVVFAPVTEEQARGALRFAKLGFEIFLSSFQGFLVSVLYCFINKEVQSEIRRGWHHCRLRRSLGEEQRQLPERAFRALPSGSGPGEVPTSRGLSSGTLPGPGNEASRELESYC
Experiment: cell-based or functional assay
Non-standard residues stand in square brackets, D forms with d. No end group written: not given here. Phe(4-CN) = N#Cc1ccc(C[C@H](N)C(=O)O)cc1; αMePhe(2-F) = C[C@](N)(Cc1ccccc1F)C(=O)O; Aib = CC(C)(N)C(=O)O
Please respond with MET when measured cAMP Rel EC50, nM (1% HSA) is strictly beneath 30 nM, and with NOT MET in all other cases.

// known answers, use as guide
- YXQGTXTSDXXIXLDXKAQXXFIEXLAEGGPSSGEPPPE (synthetic construct; SITE 2: note = 2-Aminoisobutyric Acid; SITE 6: note = alpha-methyl-2-fluoro-L-phenylalanine; SITE 10: note = 3-(4-Pyridyl)-L-alanine; SITE 11: note = alpha-methyl-L-serine; SITE 13: note = alpha-methyl-leucine; SITE 16: note = L-ornithine; SITE 17: note = Lysine is chemically mo) [Example 437]: MET
- Y[Aib]QGT[αMePhe(2-F)]TSD[Phe(4-CN)]SILLDKQAQKAFIQYLLEGGPSSGEPPPSEG-NH2 (not fully specified (residue 20)) [Example 353]: NOT MET
- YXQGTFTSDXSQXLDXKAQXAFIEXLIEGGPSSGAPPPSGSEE (non-natural residues, (γGlu)2-C18 diacid lysine acylation, C-terminal amide; synthetic construct; SITE 2: note = 2-Aminoisobutyric Acid; SITE 10: note = 3-(4-Pyridyl)-L-alanine; SITE 13: note = alpha-methyl-leucine; SITE 16: note = L-ornithine; SITE 17: note = Lysine is chemically modified through conjugation of the epsilon-amino group of the Lysine side chain with (gamma-Gl)) [Example 1044]: NOT MET
- YXQGTFTSDXSXXLDXKAQXAFIEYLIAGGPSSGEPPPSGTE (Aib, 4Pal, Orn, αMeL, Me4Pal; (γGlu)2-C18 diacid on Lys; amide; synthetic construct; SITE 2: note = 2-Aminoisobutyric Acid; SITE 10: note = 3-(4-Pyridyl)-L-alanine; SITE 12: note = L-ornithine; SITE 13: note = alpha-methyl-leucine; SITE 16: note = L-ornithine; SITE 17: note = Lysine is chemically modified through conjugation of the epsilon-amino group of the Lys) [Example 984]: MET

Now look at this entry.
hey, is cAMP Rel EC50, nM (1% HSA) for YXQGTXTSDYSILLDKIAQXAFIKYLEEGGPSSGAPPPS (not fully specified; synthetic construct; SITE 2: note = 2-Aminoisobutyric Acid; SITE 6: note = alpha-methyl-2-fluoro-L-phenylalanine; SITE 20: note = 2-Aminoisobutyric Acid; SITE 24: note = Lysine is chemically modified through conjugation of the epsilon-amino group of the Lysine side chain with (2-[2-(2-Amino-ethoxy)-) [Example 430] lower than 30 nM or not?
MET
